Data provenance: PubChem BioAssay AID1159580

- Test Summary: chemical genetic growth profiling, strain panel (AID 1159580);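 also: tested at 20 µM; growth read once vehicle control cultures reached saturation at 30 °C; 1 = growth at the plate median or of vehicle wells; lower values mean less growth of the strain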
- Settings: S. cerevisiae deletion strains, growth OD, locus YDR334W, strain swr1
Among all 5,500 compounds or so, about 2,000 (36%) were called active. Not shown: some 18% with an inconclusive outcome. Rule as the data show it: active = normalized growth mostly below about 0.91 (no sharp cut-off); inconclusive = no clear call, values can overlap the other calls; inactive = mostly above about 0.92. This is one part of the list.
Classes used: active, inactive

| Molecule | Label |
| --- | --- |
| Cn1c(=O)[nH]c2nc[nH]c2c1=O | inactive |
| O=C1C=CC(=O)c2c(O)cccc21 | active |
| O=C(Nc1ccc([N+](=O)[O-])cc1Cl)c1cc(Cl)ccc1O | inactive |
| ClC1C(Cl)C(Cl)C(Cl)C(Cl)C1Cl (stereo not given) | inactive |
| Cn1c(=O)c2c(ncn2CCO)n(C)c1=O | inactive |
| CC(C)c1cc2c(c(O)c1O)[C@@]1(C(=O)O)CCCC(C)(C)C1CC2 (stereo not given in full) | inactive |
| CC(=O)Nc1c(I)cc(I)c(C(=O)O)c1I | inactive |
| CCCCN(CC)c1c([N+](=O)[O-])cc(C(F)(F)F)cc1[N+](=O)[O-] | inactive |
| Cn1c(=O)c2c(ncn2C)n(C)c1=O | inactive |
| COc1cc(OC)c2c(OC)c(-c3ccc4c(c3)OCO4)c(=O)oc2c1 | inactive |
| COc1ccc(-c2c(O)c3c(OC)c4c(cc3oc2=O)OC(C)(C)C=C4)cc1 | inactive |
| O=C(O)[C@H]1/C(=C/CO)O[C@@H]2CC(=O)N21 | inactive |
| Cn1cnc2c1c(=O)[nH]c(=O)n2C | inactive |
| CC(=O)CCCCn1c(=O)c2c(ncn2C)n(C)c1=O | inactive |
| O=c1c(O)c(-c2ccccc2)oc2ccc3occc3c12 | inactive |

###

Entries and their normalized growth values follow.
- Test Summary: chemical genetic growth profiling, strain panel (AID 1159580)
- Settings: S. cerevisiae deletion strains, growth OD, locus YEL003W, strain gim4, stronger effect = lower value
Out of some 5,500 compounds screened, about 2,000 (36%) were called active. Another 18% or so got no clear call; they are omitted. The list shows a part of the results.
Property Name: normalized growth

| Compound | Property Name | Endpoint Value |
| --- | --- | --- |
| CC(=O)O[C@@H]1C2CC[C@@H]3C1(C[C@@H](O)[C@@]1(O)[C@@H](C[C@H](O)C1(C)C)[C@]3(C)O)C[C@@]2(C)O (some centres not stated) | normalized growth | 0.988 |
| COc1ccc(NS(=O)(=O)c2ccc(N)cc2)nn1 | normalized growth | 1.02 |
| COc1cc([C@@H]2c3cc4c(cc3[C@H](O)[C@H]3COC(=O)[C@H]23)OCO4)cc(OC)c1OC | normalized growth | 1.01 |
| CC(=O)CCCCn1c(=O)c2c(ncn2C)n(C)c1=O | normalized growth | 1.01 |
| O=C(O)CCC(=O)OC[C@@H](NC(=O)C(Cl)Cl)[C@H](O)c1ccc([N+](=O)[O-])cc1 | normalized growth | 0.982 |
| CON | normalized growth | 0.993 |
| CC1=C(C(=O)O)N2C(=O)[C@@H](NC(=O)[C@@H](N)c3ccc(O)cc3)[C@H]2SC1 | normalized growth | 1.03 |
| NC(=NCCCCCCN=C(N)N=C(N)Nc1ccc(Cl)cc1)N=C(N)Nc1ccc(Cl)cc1 | normalized growth | 0.0531 |
| C[C@H]1C(=O)CCC2[C@]3(C)CC[C@@]4(C)C5CC(C)(C)CC[C@]5(C)CC[C@]4(C)C3CC[C@@]21C (some centres not stated) | normalized growth | 1.01 |
| O=C1c2ccccc2C(=O)c2ccccc21 | normalized growth | 0.981 |
| O=C1C=CC(=O)c2c(O)c(Cl)c(Cl)c(O)c21 | normalized growth | 0.0616 |
| ClC1C(Cl)C(Cl)C(Cl)C(Cl)C1Cl (configuration not stated) | normalized growth | 0.982 |
| CNC(C)(C)Cc1ccccc1 | normalized growth | 1.01 |
| Cn1c(=O)c2c(ncn2C)n(C)c1=O | normalized growth | 0.979 |
| CC(=O)c1ccc[nH]1 | normalized growth | 0.998 |
| NS(=O)(=O)c1cc2c(cc1Cl)NCNS2(=O)=O | normalized growth | 1.01 |
| Oc1cccc2cccnc12 | normalized growth | 0.0548 |
| CC(=O)O[C@H]1CC2CCC3C(CC[C@@]4(C)C3C[C@H]([N+]3(C)CCCCC3)[C@@H]4OC(C)=O)[C@@]2(C)C[C@@H]1N1CCCCC1 (some centres not stated) | normalized growth | 1.02 |
| CC(NC(C)(C)C)C(=O)c1cccc(Cl)c1 (configuration not stated) | normalized growth | 1 |
| CNC(=O)Oc1ccccc1OC(C)C | normalized growth | 0.993 |
| Cn1c(=O)c2c(ncn2CCO)n(C)c1=O | normalized growth | 1.02 |
| C[N+]12CCC(CC1)C(OC(=O)C(O)(c1ccccc1)c1ccccc1)C2 (configuration not stated) | normalized growth | 0.987 |

###

- Test Summary: chemical genetic growth profiling, strain panel (AID 1159580);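 also: tested at 20 µM; growth read once vehicle control cultures reached saturation at 30 °C; 1 = growth at the plate median or of vehicle wells; lower values mean less growth of the strain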
- Settings: S. cerevisiae deletion strains, growth OD, locus YNL197C, strain WHI3, stronger effect = lower value
Out of some 5,500 compounds screened, about 2,000 (36%) were called active. Not shown: some 18% with an inconclusive outcome. Some of the results follow.
Reported normalized growth values are given for each entry in this list.

| Entry Smiles | normalized growth |
| --- | --- |
| CC(C)NP(=O)(NC(C)C)OP(=O)(NC(C)C)NC(C)C | 0.995 |
| Cn1c(=O)[nH]c2ncn(C)c2c1=O | 0.995 |
| CC(C)Cn1c(=O)n(C)c(=O)c2[nH]cnc21 | 0.986 |
| c1ccc2nc(C3=NCCN3)ccc2c1 | 0.996 |

###

Parameter: normalized growth. Scope: all listed entries.
- Test Summary: chemical genetic growth profiling, strain panel (AID 1159580);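 also: tested at 20 µM; growth read once vehicle control cultures reached saturation at 30 °C; 1 = growth at the plate median or of vehicle wells; lower values mean less growth of the strain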
- Settings: S. cerevisiae deletion strains, growth OD, locus YOR136W, strain idh2, stronger effect = lower value
The whole screen tested about 5,500 compounds, of which about 2,000 (36%) were called active. About 18% were inconclusive and are not listed. This is one part of the list.

| Molecule | normalized growth |
| --- | --- |
| COP(=O)(NC(C)=O)SC (configuration not stated) | 1 |
| CNC(C)(C)Cc1ccccc1 | 0.994 |
| CC(=O)Oc1c(C)c(C)c2c(c1C)CCC(C)(CCCC(C)CCCC(C)CCCC(C)C)O2 (configuration not stated) | 0.98 |
| CN1C(=O)CC[C@H]1c1cccnc1 | 1.02 |
| O=c1c(O)c(-c2ccccc2)oc2ccc3occc3c12 | 0.876 |
| Cn1c(=O)c2c(ncn2C)n(C)c1=O | 1.01 |
| CC(=O)OCC1=C(C(=O)O)N2C(=O)[C@@H](NC(=O)CSc3ccncc3)[C@H]2SC1 | 0.983 |
| CC(C)[C@@H]1CC[C@@H](C)CC1=O | 0.987 |
| C=C(C)C1Cc2c(ccc3c(=O)c4c(oc23)COc2cc(OC)c(OC)cc2-4)O1 (configuration not stated) | 1 |
| COc1cc(Cc2cnc(N)nc2N)cc(OC)c1OC | 0.992 |
| COc1cc(OC)c2c(OC)c(-c3ccc4c(c3)OCO4)c(=O)oc2c1 | 0.99 |
| C[C@H]1C(=O)CCC2[C@]3(C)CC[C@@]4(C)C5CC(C)(C)CC[C@]5(C)CC[C@]4(C)C3CC[C@@]21C (some centres not stated) | 0.994 |

###

- Test Summary: chemical genetic growth profiling, strain panel (AID 1159580);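 also: tested at 20 µM; growth read once vehicle control cultures reached saturation at 30 °C; 1 = growth at the plate median or of vehicle wells; lower values mean less growth of the strain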
- Settings: S. cerevisiae deletion strains, growth OD, locus YEL061C, strain CIN8, stronger effect = lower value
Out of some 5,500 compounds screened, about 2,000 (36%) were called active. Inconclusive results (about 18%) are left out. Some of the results follow.

| Compound | normalized growth |
| --- | --- |
| CNC(C)[C@@H]1CC[C@@H](N)[C@@H](OC2[C@@H](N)C[C@@H](N)[C@H](OC3OC[C@](C)(O)[C@H](NC)[C@H]3O)[C@H]2O)O1 (some centres not stated) | 1.02 |
| CC(=O)Oc1c(C)c(C)c2c(c1C)CCC(C)(CCCC(C)CCCC(C)CCCC(C)C)O2 (configuration not stated) | 1.01 |
| O=C(NNC(=S)Nc1cccc(Cl)c1)c1cccnc1 | 1.01 |
| CC(C)(C)S(=O)(=O)c1cnc(N)nc1N | 0.993 |
| C=C(C)C1Cc2c(ccc3c(=O)c4c(oc23)COc2cc(OC)c(OC)cc2-4)O1 (configuration not stated) | 1 |
| COC(=O)C[C@H]1C(C)(C)[C@H](O)[C@@H]2CC3=C4CC(O)O[C@@H](c5ccoc5)[C@]4(C)CCC3[C@@]1(C)C2=O (some centres not stated) | 0.974 |
| CCOC(=O)c1ccc(Oc2ncc(C(F)(F)F)cc2Cl)cc1 | 0.996 |
